biological target: Arginase (Homo sapiens); assay: Arginase Thioornithine Generating Assay (TOGA); conditions: recombinant arginase 1.88 nM, thioarginine substrate, fluorescence readout
Assay readout: IC50 (µM)
Provide the reading as a plain figure in µM.

Input O=C(O)[C@]12CNC[C@@]1(CCCB(O)O)CCN2 [Example 4] , output reported IC50.
0.046

====

target: Arginase (Homo sapiens); assay: Arginase Thioornithine Generating Assay (TOGA); assay type: biochemical; settings: read-out: Percent Inhibition at Top Dose, Top Dose 10000 nM
Documented inhibition at 10 µM across a set of molecules
I only need the number, in %, no unit after it.

A selection of reference data follows.
- Molecule: "O=C([C@@H]1CCCN1)N1C[C@@]2(CCCB(O)O)CCN[C@@]2(C(=O)O)C1 [Example 10]"
  inhibition at 10 µM [%]: 96.6
- Molecule: "C[C@H](N)C(=O)N1C[C@@]2(CCCB(O)O)CCN[C@@]2(C(=O)O)C1 [Example 1]"
  inhibition at 10 µM [%]: 99.7
- Molecule: "N[C@@H](CO)C(=O)N1C[C@@]2(CCCB(O)O)CCN[C@@]2(C(=O)O)C1 [Example 9]"
  inhibition at 10 µM [%]: 97.3

For the molecule NCC(=O)N1C[C@@]2(CCCB(O)O)CCN[C@@]2(C(=O)O)C1 [Example 3] , report inhibition at 10 µM.
89.5

Hello, please tell me recorded inhibition at 10 µM for this one: NC[C@@H]1NC[C@]2(C(=O)O)NCC[C@]12CCCB(O)O [Example 12]
100

====

target: Arginase (Homo sapiens, UniProt P05089); assay: Arginase Thioornithine Generating Assay (TOGA); assay type: biochemical; conditions: Top Dose 10000 nM; read-out: Percent Inhibition at Top Dose
Sequence (P05089 whole entry): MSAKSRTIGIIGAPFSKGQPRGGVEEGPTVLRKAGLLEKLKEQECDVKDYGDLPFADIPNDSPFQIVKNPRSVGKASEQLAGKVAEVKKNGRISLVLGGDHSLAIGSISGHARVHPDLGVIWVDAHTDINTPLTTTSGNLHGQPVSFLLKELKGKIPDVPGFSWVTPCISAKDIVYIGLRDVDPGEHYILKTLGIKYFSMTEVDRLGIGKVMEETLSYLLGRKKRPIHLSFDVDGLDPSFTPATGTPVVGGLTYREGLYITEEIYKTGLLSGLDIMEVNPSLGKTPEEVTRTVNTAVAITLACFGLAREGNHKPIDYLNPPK
Assay readout: inhibition at 10 µM (%)
# number only, unit % dropped from output

Solved entries:
- Record smiles: "O=C(O)[C@]12CNC[C@@]1(CCCB(O)O)CN2"
  Unit info: "%"
  Observed value: 99.5
- Record smiles: "O=C(O)[C@]12CNC[C@@]1(CCCB(O)O)CCN2"
  Unit info: "%"
  Observed value: 98.2
- Record smiles: "CC(C)(C)[C@H](N)C(=O)N1C[C@@]2(CCCB(O)O)CCN[C@@]2(C(=O)O)C1"
  Unit info: "%"
  Observed value: 102

Please report inhibition at 10 µM for the following compound: CC(C)[C@H](N)C(=O)N1C[C@@]2(CCCB(O)O)CCN[C@@]2(C(=O)O)C1
99

====

Below: a set of entries, each annotated with reported inhibition at 10 µM.
target: Arginase (Homo sapiens, UniProt P05089); test: Arginase Thioornithine Generating Assay (TOGA); type: biochemical; conditions: Top Dose 10000 nM; read-out: Percent Inhibition at Top Dose
Kindly answer with a numeric value in %, unit omitted.

- Molecule: "COC[C@H](N)C(=O)N1C[C@@]2(CCCB(O)O)CCN[C@@]2(C(=O)O)C1"
  inhibition at 10 µM, %: 97.8
- Molecule: "CC(C)(N)C(=O)N1C[C@@]2(CCCB(O)O)CCN[C@@]2(C(=O)O)C1"
  inhibition at 10 µM, %: 97.3
- Molecule: "CC(C)C[C@H](N)C(=O)N1C[C@@]2(CCCB(O)O)CCN[C@@]2(C(=O)O)C1"
  inhibition at 10 µM, %: 96.7

Then this molecule:
Output inhibition at 10 µM of O=C(O)C12CNCC1(CCCB(O)O)CCN2 (racemic)
91.9
